Origin of measurements: ChEMBL document CHEMBL3751763

- Test method notes: Inhibition of Saccharomyces cerevisiae alpha-Glucosidase using p-nitrophenyl-alpha-D-glucopyranoside as substrate assessed as formation of para-nitrophenol preincubated for 5 mins followed by addition of substrate measured after 15 mins by microplate reader analysis
Measured property: IC50 (µM)

Some compounds with known IC50 results, for comparison:
COC(=O)[C@]1(Cc2ccccc2)OC(=O)C(O)=C1c1ccccc1 = 0.385
COC(=O)[C@]1(Cc2ccc(O)c(CC=C(C)C)c2)OC(=O)C(OC)=C1c1ccc(O)c(O)c1 = 0.016
O=c1c(O)c(-c2ccc(O)c(O)c2)oc2cc(O)cc(O)c12 = 0.015

[1] C[C@@H]1O[C@@H](O[C@@H]2[C@@H](O)[C@H](O)[C@H](O[C@H]3[C@H](O)[C@@H](O)C(O)O[C@@H]3CO)O[C@H]2CO)[C@@H](O)[C@H](O)[C@H]1N[C@H]1C=C(CO)[C@@H](O)[C@H](O)[C@H]1O (some centres undefined)
[2] COC(=O)c1cc(O)cc(O)c1C(=O)c1c(O)cc(C)cc1O
[3] COC(=O)[C@]1(Cc2ccc(O)cc2)OC(=O)C(O)=C1c1ccc(O)cc1
[4] COc1cc(O)cc(C(=O)O)c1C(=O)c1c(O)c(Cl)c(C)c(Cl)c1O
Rank the 4 compounds: largest IC50 first, smallest last. Response format: the labels, sorted as the prompt asks.
1, 2, 3, 4

---

- Test method notes: Inhibition of Saccharomyces cerevisiae alpha-Glucosidase using p-nitrophenyl-alpha-D-glucopyranoside as substrate assessed as formation of para-nitrophenol preincubated for 5 mins followed by addition of substrate measured after 15 mins by microplate reader analysis
pIC50: −log10 of the molar value.
Measured property: pIC50

COC(=O)c1c(O)c(Cl)c(C)c(Cl)c1Oc1c(OC)cc(O)cc1C(=O)O = 5.83
COC(=O)c1cc(O)cc(OC)c1Oc1c(Cl)c(C)c(Cl)c(O)c1C(=O)OC [METYL DICHLOROASTERRATE] = 5.84

---

- Test method notes: Inhibition of Saccharomyces cerevisiae alpha-Glucosidase using p-nitrophenyl-alpha-D-glucopyranoside as substrate assessed as formation of para-nitrophenol preincubated for 5 mins followed by addition of substrate measured after 15 mins by microplate reader analysis
Measured property: IC50 (nM)

As a guide, the following entries are already answered.
COc1cc(/C=C2\OC(=O)C(c3ccc(O)cc3)=C2O)ccc1O = 22
COC(=O)c1cc(O)cc(OC)c1Oc1c(Cl)c(C)c(Cl)c(O)c1C(=O)O [GEODIN HYDRATE] = 91

[1] COc1cc(/C=C2\OC(=O)C(c3ccc(O)cc3)=C2O)cc(OC)c1O
[2] O=C1O/C(=C\c2ccc(O)cc2)C(O)=C1c1ccc(O)cc1 [ASPULVINONE E]
Just curious, which one has the larger IC50 reading, 1 or 2 ? Answer by quoting the chosen item's label.
2
(2: 2700 nM, 1: 79 nM)

---

- Test method notes: Inhibition of Saccharomyces cerevisiae alpha-Glucosidase using p-nitrophenyl-alpha-D-glucopyranoside as substrate assessed as formation of para-nitrophenol preincubated for 5 mins followed by addition of substrate measured after 15 mins by microplate reader analysis
Measured property: IC50

Observe how each entry below is paired with its result.
COC(=O)c1cc(O)cc(O)c1C(=O)c1c(O)c(Cl)c(C)c(Cl)c1O = > 2000 nM
COC(=O)c1cc(O)cc(OC)c1Oc1cc(C)c(Cl)c(O)c1C(=O)OC [METHYL CHLOROASTERRATE] = > 2000 nM

Turning now to a further record.
Give the measured IC50 for COc1cc(O)cc(C(=O)O)c1Oc1cc(C)cc(O)c1C(=O)O
> 2000 nM
